Consider the following molecules and their measured IC50 readings.
# assayProtocol: Antiproliferative activity against mouse L5178 cells after 72 hrs by MTT assay
# Type: functional, cell-based
# cond: L5178, 72 h
# output: number + unit

Use the examples below as a reference point.
1) CC(C)(F)CC[C@@H]1OC(C)(C)O[C@]1(C)[C@H]1CC=C2C3=CC(=O)[C@@H]4C[C@H]5OC(C)(C)O[C@H]5C[C@]4(C)[C@H]3CC[C@@]21C 14.1 µM
2) CC(C)(F)CC[C@@H]1OC(C)(C)O[C@]1(C)[C@H]1CC[C@@]2(F)C3=CC(=O)[C@@H]4C[C@H]5OC(C)(C)O[C@H]5C[C@]4(C)[C@H]3CC[C@]12C 88.6 µM
3) CC(C)(F)CC[C@@H]1OC(C)(C)O[C@]1(C)[C@H]1CC[C@@]2(O)C3=CC(=O)[C@@H]4C[C@H]5OC(C)(C)O[C@H]5C[C@]4(C)[C@H]3CC[C@]12C 48.3 µM
4) CC(C)(O)CC[C@@H]1OC(C)(C)O[C@]1(C)[C@H]1CC=C2C3=CC(=O)[C@@H]4C[C@H]5OC(C)(C)O[C@H]5C[C@]4(C)[C@H]3CC[C@@]21C 14.6 µM
5) COc1cccc2c1C(=O)c1c(O)c3c(c(O)c1C2=O)C[C@@](O)(C(=O)CO)C[C@@H]3O[C@H]1C[C@H](N)[C@H](O)[C@H](C)O1 0.23 µM

Record request: IC50 value, item CC(C)(O)CC[C@@H]1OC(C)(C)O[C@]1(C)[C@H]1CC[C@@]2(O)C3=CC(=O)[C@@H]4C[C@H]5OC(C)(C)O[C@H]5C[C@]4(C)[C@H]3CC[C@]12C
82.9 µM

====

# assayProtocol: Antiproliferative activity against mouse L5178 cells harboring human ABCB1 after 72 hrs by MTT assay
# Type: functional, cell-based
# cond: L5178, 72 h
Listing of recorded IC50 by entry.
Give your result in µM as a bare value.

Would you please look over these solved cases?
1. CC(C)(O)CC[C@@H]1OC(C)(C)O[C@]1(C)[C@H]1CC[C@@]2(O)C3=CC(=O)[C@@H]4C[C@H]5OC(C)(C)O[C@H]5C[C@]4(C)[C@H]3CC[C@]12C 106
2. CC(C)(F)CC[C@@H]1OC(C)(C)O[C@]1(C)[C@H]1CC[C@@]2(O)C3=CC(=O)[C@@H]4C[C@H]5OC(C)(C)O[C@H]5C[C@]4(C)[C@H]3CC[C@]12C 50.1

Any idea what IC50 was measured for COc1cccc2c1C(=O)c1c(O)c3c(c(O)c1C2=O)C[C@@](O)(C(=O)CO)C[C@@H]3O[C@H]1C[C@H](N)[C@H](O)[C@H](C)O1 ?
3.54

====

Catalogue of CI readings, one per entry.
# targetDesc: UniProtKB P08183
# Sequence (P08183 whole entry): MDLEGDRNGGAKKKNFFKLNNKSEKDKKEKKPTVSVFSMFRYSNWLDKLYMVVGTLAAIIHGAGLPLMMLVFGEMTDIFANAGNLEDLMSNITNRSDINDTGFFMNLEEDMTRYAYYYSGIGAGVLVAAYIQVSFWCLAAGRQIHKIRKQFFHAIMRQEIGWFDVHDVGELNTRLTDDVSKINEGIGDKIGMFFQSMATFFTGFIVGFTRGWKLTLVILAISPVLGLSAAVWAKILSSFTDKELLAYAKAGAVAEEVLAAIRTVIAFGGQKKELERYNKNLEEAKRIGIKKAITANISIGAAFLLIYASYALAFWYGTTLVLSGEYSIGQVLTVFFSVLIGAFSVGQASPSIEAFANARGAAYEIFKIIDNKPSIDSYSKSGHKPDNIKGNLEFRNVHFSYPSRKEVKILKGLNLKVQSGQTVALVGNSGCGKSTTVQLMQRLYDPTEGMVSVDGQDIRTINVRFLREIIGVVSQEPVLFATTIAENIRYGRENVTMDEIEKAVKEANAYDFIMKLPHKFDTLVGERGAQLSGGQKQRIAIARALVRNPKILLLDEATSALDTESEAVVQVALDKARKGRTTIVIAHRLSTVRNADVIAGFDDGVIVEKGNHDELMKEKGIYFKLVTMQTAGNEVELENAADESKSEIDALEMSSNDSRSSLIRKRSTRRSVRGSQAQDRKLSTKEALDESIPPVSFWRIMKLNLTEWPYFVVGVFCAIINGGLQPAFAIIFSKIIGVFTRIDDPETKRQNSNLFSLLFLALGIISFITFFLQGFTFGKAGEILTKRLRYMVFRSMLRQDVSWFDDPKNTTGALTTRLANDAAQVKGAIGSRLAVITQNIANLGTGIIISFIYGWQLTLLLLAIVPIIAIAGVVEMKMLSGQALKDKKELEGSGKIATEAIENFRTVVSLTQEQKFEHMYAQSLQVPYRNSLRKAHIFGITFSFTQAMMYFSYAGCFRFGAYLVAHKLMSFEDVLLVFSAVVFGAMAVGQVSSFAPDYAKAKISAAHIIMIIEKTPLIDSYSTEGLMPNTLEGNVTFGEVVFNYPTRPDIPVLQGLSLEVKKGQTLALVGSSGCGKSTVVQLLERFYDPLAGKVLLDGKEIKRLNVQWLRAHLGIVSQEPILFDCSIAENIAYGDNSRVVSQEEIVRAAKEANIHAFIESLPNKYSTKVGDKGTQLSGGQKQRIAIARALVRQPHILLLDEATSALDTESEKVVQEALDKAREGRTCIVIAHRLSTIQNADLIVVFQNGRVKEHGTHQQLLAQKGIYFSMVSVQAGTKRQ
# assayProtocol: Inhibition of human ABCB1 expressed in mouse L5178 cells assessed as potentiation of doxorubicin-induced cytotoxicity by measuring combination index at ED90 in presence of 81.5:1 ratio of doxorubicin to test compound after 48 hrs by MTT assay
# Format: cell-based
Reply with the value as a number alone.

1. CC(C)(O)CC[C@@H]1OC(C)(C)O[C@]1(C)[C@H]1CC=C2C3=CC(=O)[C@@H]4C[C@H]5OC(C)(C)O[C@H]5C[C@]4(C)[C@H]3CC[C@@]21C 0.69
2. CC(C)(F)CC[C@@H]1OC(C)(C)O[C@]1(C)[C@H]1CC[C@@]2(O)C3=CC(=O)[C@@H]4C[C@H]5OC(C)(C)O[C@H]5C[C@]4(C)[C@H]3CC[C@]12C 0.33
3. CC(C)(F)CC[C@@H]1OC(C)(C)O[C@]1(C)[C@H]1CC=C2C3=CC(=O)[C@@H]4C[C@H]5OC(C)(C)O[C@H]5C[C@]4(C)[C@H]3CC[C@@]21C 0.69
4. CC(C)(O)CC[C@@H]1OC(C)(C)O[C@]1(C)[C@H]1CC[C@@]2(O)C3=CC(=O)[C@@H]4C[C@H]5OC(C)(C)O[C@H]5C[C@]4(C)[C@H]3CC[C@]12C 0.12

Proceeding to the next molecule to report its CI.
State the recorded CI for this entry: CC(C)(F)CC[C@@H]1OC(C)(C)O[C@]1(C)[C@H]1CC[C@@]2(F)C3=CC(=O)[C@@H]4C[C@H]5OC(C)(C)O[C@H]5C[C@]4(C)[C@H]3CC[C@]12C
0.11

Where these numbers come from: ChEMBL document CHEMBL4190180
